Target: Human sodium/glucose co-transporter type 1 (SGLT1) (Homo sapiens (Human), UniProt P13866)
Sequence (P13866 whole entry): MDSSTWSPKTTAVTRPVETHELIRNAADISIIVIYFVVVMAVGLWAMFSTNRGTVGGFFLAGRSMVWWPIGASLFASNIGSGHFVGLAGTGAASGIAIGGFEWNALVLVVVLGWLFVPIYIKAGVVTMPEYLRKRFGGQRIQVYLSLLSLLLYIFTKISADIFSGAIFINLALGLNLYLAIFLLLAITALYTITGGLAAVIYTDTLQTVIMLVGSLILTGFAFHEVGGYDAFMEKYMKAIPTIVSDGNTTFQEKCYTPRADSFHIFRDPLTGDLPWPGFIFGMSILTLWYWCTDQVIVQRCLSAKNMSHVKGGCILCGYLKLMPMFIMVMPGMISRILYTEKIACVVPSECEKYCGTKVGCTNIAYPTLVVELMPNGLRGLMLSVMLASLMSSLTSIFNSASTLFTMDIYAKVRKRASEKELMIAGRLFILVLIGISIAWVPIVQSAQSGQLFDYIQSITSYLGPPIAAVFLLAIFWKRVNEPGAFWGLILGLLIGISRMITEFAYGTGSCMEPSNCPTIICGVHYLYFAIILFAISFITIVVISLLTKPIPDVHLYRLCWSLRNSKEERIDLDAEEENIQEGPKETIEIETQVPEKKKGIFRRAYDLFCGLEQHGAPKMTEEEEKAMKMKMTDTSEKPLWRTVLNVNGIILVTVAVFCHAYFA
Test: In vitro human SGLT1 inhibition assay (14C-AMG uptake)
Conditions: HEK293 cells expressing human HA-SGLT1, 14C-AMG uptake
Test readout: IC50

Worked cases, answers included:
Compound	IC50
CS[C@H]1O[C@@H](c2ccc(C)c(Cc3ccc(CCCCCCC(=O)NC(CO)(CO)CO)cc3)c2)[C@H](O)[C@@H](O)[C@@H]1O	< 100 nM
CS[C@H]1O[C@@H](c2ccc(C)c(Cc3ccc(OCCCC(=O)N[C@@H](CO)C(N)=O)cc3)c2)[C@H](O)[C@@H](O)[C@@H]1O	< 100 nM

Quick check: IC50 of `COCCOCCOc1ccc(Cc2cc([C@@H]3O[C@H](SC)[C@@H](O)[C@H](O)[C@H]3O)ccc2C)cc1` ?
< 10 nM

Quick check: IC50 of `CS[C@H]1O[C@@H](c2ccc(C)c(Cc3ccc(CCCC(=O)NCCCN(C)CCCNC(=O)CCCc4ccc(Cc5cc([C@@H]6O[C@H](SC)[C@@H](O)[C@H](O)[C@H]6O)ccc5C)cc4)cc3)c2)[C@H](O)[C@@H](O)[C@@H]1O` ?
< 10 nM

Quick check: IC50 of `CS[C@H]1O[C@@H](c2ccc(C)c(Cc3ccc(CCCCCNC(=O)NC(C)(C)CO)cc3)c2)[C@H](O)[C@@H](O)[C@@H]1O` ?
< 100 nM

Quick check: IC50 of Cc1ccc([C@@H]2O[C@H]([S+](C)[O-])[C@@H](O)[C@H](O)[C@H]2O)cc1Cc1ccc(CCCC(=O)NC(C)(C)C(=O)N2CCN(C)CC2)cc1 (stereo partly drawn) ?
< 100 nM

Quick check: IC50 of `CS[C@H]1O[C@@H](c2ccc(C)c(Cc3ccc(CCCC(=O)NC4(C(=O)N5CCN(C)CC5)CCOCC4)cc3)c2)[C@H](O)[C@@H](O)[C@@H]1O` ?
< 10 nM

Quick check: IC50 of `CS[C@H]1O[C@@H](c2ccc(C)c(Cc3ccc(CCCCCN(C[C@H](O)CO)C[C@H](O)CO)cc3)c2)[C@H](O)[C@@H](O)[C@@H]1O` ?
< 100 nM

Quick check: IC50 of `CS[C@H]1O[C@@H](c2ccc(C)c(Cc3ccc(CCCC(=O)NCCN(CCNC(=O)CCCc4ccc(Cc5cc([C@@H]6O[C@H](SC)[C@@H](O)[C@H](O)[C@H]6O)ccc5C)cc4)CCNC(=O)CCCc4ccc(Cc5cc([C@@H]6O[C@H](SC)[C@@H](O)[C@H](O)[C@H]6O)ccc5C)cc4)cc3)c2)[C@H](O)[C@@H](O)[C@@H]1O` ?
< 100 nM

Quick check: IC50 of CS[C@H]1O[C@@H](c2ccc(Cl)c(Cc3ccc(OCCCC(=O)NC4CCCCC4N4CCOCC4)cc3)c2)[C@H](O)[C@@H](O)[C@@H]1O (stereo partly drawn) ?
< 100 nM

Quick check: IC50 of `CS[C@H]1O[C@@H](c2ccc(C)c(Cc3ccc(CCCC(=O)NC(C)(C)C(=O)N4CCC(NC(=O)OC(C)(C)C)CC4)cc3)c2)[C@H](O)[C@@H](O)[C@@H]1O` ?
< 10 nM

Quick check: IC50 of `CS[C@H]1O[C@@H](c2ccc(C)c(Cc3ccc(CCCC(=O)NC(C)(C)C(=O)N4CCN(CCO)CC4)cc3)c2)[C@H](O)[C@@H](O)[C@@H]1O` ?
< 10 nM

====

Listing of recorded IC50 by entry.
Target: Human sodium/glucose co-transporter type 1 (SGLT1) (Homo sapiens (Human), UniProt P13866)
Test: In vitro human SGLT1 inhibition assay (14C-AMG uptake)
Conditions: HEK293 cells expressing human HA-SGLT1, 14C-AMG uptake

> print(dat)
                                   compound                                    target  test.readout    result
1  CS[C@H]1O[C@@H](c2ccc(C)c(Cc3ccc(CCCCNC4(C(N)=O)CCCC4)cc3)c2)[C@H](O)[C@@H](O)[C@@H]1O  Human sodium/glucose co-transporter type 1 (SGLT1) (Homo sapiens (Human), UniProt P13866)          IC50  < 100 nM
2  CS[C@H]1O[C@@H](c2ccc(C)c(Cc3ccc(CCCC(=O)NC(C)(C)C(=O)NC4CCN(C)CC4)cc3)c2)[C@H](O)[C@@H](O)[C@@H]1O  Human sodium/glucose co-transporter type 1 (SGLT1) (Homo sapiens (Human), UniProt P13866)          IC50   < 10 nM
3  CS[C@H]1O[C@@H](c2ccc(C)c(Cc3ccc(OCCCC(=O)N[C@@H](C)C(N)=O)cc3)c2)[C@H](O)[C@@H](O)[C@@H]1O  Human sodium/glucose co-transporter type 1 (SGLT1) (Homo sapiens (Human), UniProt P13866)          IC50  < 100 nM
4  CS[C@H]1O[C@@H](c2ccc(C)c(Cc3ccc(OCCCC(=O)NC(C)(C)C(=O)NC4CCNCC4)cc3)c2)[C@H](O)[C@@H](O)[C@@H]1O  Human sodium/glucose co-transporter type 1 (SGLT1) (Homo sapiens (Human), UniProt P13866)          IC50   < 10 nM
5  CS[C@H]1O[C@@H](c2ccc(C)c(Cc3ccc(OCCCC(=O)NC(C)(C)C(=O)NCCN(C)C)cc3)c2)[C@H](O)[C@@H](O)[C@@H]1O  Human sodium/glucose co-transporter type 1 (SGLT1) (Homo sapiens (Human), UniProt P13866)          IC50   < 10 nM

Quick check: IC50 of `CS[C@H]1O[C@@H](c2ccc(C)c(Cc3ccc(CCCC(=O)NC(C)(C)C(=O)N(C)CCN(C)C)cc3)c2)[C@H](O)[C@@H](O)[C@@H]1O` ?
< 10 nM

Quick check: IC50 of `CS[C@H]1O[C@@H](c2ccc(C)c(Cc3ccc(OCCCC(=O)NC(C)(C)C(N)=O)cc3)c2)[C@H](O)[C@@H](O)[C@@H]1O` ?
< 10 nM

Quick check: IC50 of `CS[C@H]1O[C@@H](c2ccc(C)c(Cc3ccc(OCCNC(=N)N)cc3)c2)[C@H](O)[C@@H](O)[C@@H]1O` ?
< 10 nM

====

Target: Human sodium/glucose co-transporter type 2 (SGLT2) (Homo sapiens (Human), UniProt P31639)
Sequence (P31639 whole entry): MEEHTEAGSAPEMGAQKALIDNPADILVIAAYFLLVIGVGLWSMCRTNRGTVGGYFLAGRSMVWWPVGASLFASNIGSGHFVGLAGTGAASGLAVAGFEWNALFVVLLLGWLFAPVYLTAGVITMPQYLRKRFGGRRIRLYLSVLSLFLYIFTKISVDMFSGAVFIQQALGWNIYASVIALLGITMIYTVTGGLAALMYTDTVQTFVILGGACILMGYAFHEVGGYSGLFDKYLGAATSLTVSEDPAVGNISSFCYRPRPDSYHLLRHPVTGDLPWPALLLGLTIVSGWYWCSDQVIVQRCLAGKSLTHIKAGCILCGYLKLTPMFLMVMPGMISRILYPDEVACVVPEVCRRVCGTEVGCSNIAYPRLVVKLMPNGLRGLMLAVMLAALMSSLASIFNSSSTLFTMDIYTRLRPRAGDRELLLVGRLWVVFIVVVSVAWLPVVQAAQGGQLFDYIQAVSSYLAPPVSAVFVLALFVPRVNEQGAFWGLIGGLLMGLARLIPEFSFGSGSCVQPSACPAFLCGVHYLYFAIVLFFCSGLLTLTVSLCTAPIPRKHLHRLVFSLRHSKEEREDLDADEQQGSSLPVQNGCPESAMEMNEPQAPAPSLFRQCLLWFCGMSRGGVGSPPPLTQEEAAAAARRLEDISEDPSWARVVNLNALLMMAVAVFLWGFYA
Experiment: In vitro human SGLT2 inhibition assay (14C-AMG uptake)
Details: HEK293 cells expressing human HA-SGLT2, 14C-AMG uptake
pIC50: −log10 of the molar value.
Listing of recorded pIC50 by entry.

Worked cases, answers included:
> print(dat)
                                test.smiles                                    target  result
1  CS[C@H]1O[C@@H](c2ccc(C)c(Cc3ccc(OCCCC(=O)NC(C)(C)C(=O)N(C)CCN(C)C)cc3)c2)[C@H](O)[C@@H](O)[C@@H]1O  Human sodium/glucose co-transporter type 2 (SGLT2) (Homo sapiens (Human), UniProt P31639)  > 8.00
2  CS[C@H]1O[C@@H](c2ccc(C)c(Cc3ccc(OCCCC(=O)NC4(C(=O)N5CCN(C)CC5)CCCC4)cc3)c2)[C@H](O)[C@@H](O)[C@@H]1O  Human sodium/glucose co-transporter type 2 (SGLT2) (Homo sapiens (Human), UniProt P31639)  > 8.00
3  CCC(=O)NCCOc1ccc(Cc2cc([C@@H]3O[C@H](SC)[C@@H](O)[C@H](O)[C@H]3O)ccc2Cl)cc1  Human sodium/glucose co-transporter type 2 (SGLT2) (Homo sapiens (Human), UniProt P31639)  > 8.00
4  CS[C@H]1O[C@@H](c2ccc(Cl)c(Cc3ccc(OCCCC(=O)NC(CO)(CO)CO)cc3)c2)[C@H](O)[C@@H](O)[C@@H]1O  Human sodium/glucose co-transporter type 2 (SGLT2) (Homo sapiens (Human), UniProt P31639)  > 8.00
5  CS[C@H]1O[C@@H](c2ccc(C)c(Cc3ccc(CCCC(=O)NCC(C)(C)C(=O)NC4CCNCC4)cc3)c2)[C@H](O)[C@@H](O)[C@@H]1O  Human sodium/glucose co-transporter type 2 (SGLT2) (Homo sapiens (Human), UniProt P31639)  > 8.00
6  CS[C@H]1O[C@@H](c2ccc(Cl)c(Cc3ccc(OCCCC(=O)NC(C)(C)CO)cc3)c2)[C@H](O)[C@@H](O)[C@@H]1O  Human sodium/glucose co-transporter type 2 (SGLT2) (Homo sapiens (Human), UniProt P31639)  > 8.00

Moving on to another compound below.
Quick check: pIC50 of `CS[C@H]1O[C@@H](c2ccc(C)c(Cc3ccc(OCCCC(=O)NCC(N)=O)cc3)c2)[C@H](O)[C@@H](O)[C@@H]1O` ?
> 8.00
